Attribution: patent US20240166765A1

Biological target: Relipidated TF (UniProt P13726 33-295, limits assumed)
Experiment: cell-based or functional assay
Reported values of % Peak IIa, TGA […] min pre-incubation, 50 nM Ab for individual entries
metric: % Peak IIa, TGA […] min pre-incubation, 50 nM Ab (%)

binder	measured
5G9 (humanized TF8-5G9, CNTO 860) (antibody, V domains shown) VH: QVQLVESGGGVVQPGRSLRLSCKASGFNIKDYYMHWVRQAPGKGLEWIGLIDPENGNTIYDPKFQGRFTISADNSKNTLFLQMDSLRPEDTAVYYCARDNSYYFDYWGQGTPVTVSS VL: DIQMTQSPSSLSASVGDRVTITCKASQDIRKYLNWYQQKPGKAPKLLIYYATSLADGVPSRFSGSGSGTDYTFTISSLQPEDIATYYCLQHGESPYTFGQGTKLEIT	8
54E (antibody, human IgG1, V domains shown) VH: QVQLVQSGAEVKKPGASVKVSCKASGYTFANYYMHWVRQAPGQGLEWMGIINPSGGITVYAQKFQGRVTMTRDTSTSTVYMELSSLRSEDTAVYYCARGGSKVAALAFDIWGQGTMVTVSS VL: DIQMTQSPSSLSASVGDRVTITCQASQDISNSLNWYQQKPGKAPKLLIYDASNLETGVPSRFSGSRSGTDFTFTISSLQPEDIATYYCQQYNFHPLTFGGGTKVEIK	16
39A (antibody, human IgG1, V domains shown) VH: QVQLVQSGAEVKKPGSSVKVSCKASGGTFSSNAIGWVRQAPGQGLEWMGSIIPIIGFANYAQKFQGRVTITADESTSTAYMELSSLRSEDTAVYYCARDSGYYYGASSFGMDVWGQGTTVTVSS VL: EIVMTQSPATLSVSPGERATLSCRASQSVSSNLAWYQQKPGQAPRLLIYGASTRATGIPARFSGSGSGTEFTLTISSLQSEDFAVYYCEQYNNLPLTFGGGTKVEIK	8
TF-011 (antibody, V domains shown) VH: EVQLLESGGGLVQPGGSLRLSCAASGFTFSNYAMSWVRQAPGKGLEWVSSISGSGDYTYYTDSVKGRFTISRDNSKNTLYLQMNSLRAEDTAVYYCARSPWGYYLDSWGQGTLVTVSS VL: DIQMTQSPPSLSASAGDRVTITCRASQGISSRLAWYQQKPEKAPKSLIYAASSLQSGVPSRFSGSGSGTDFTLTISSLQPEDFATYYCQQYNSYPYTFGQGTKLEIK	10
